- TEST_SYSTEM: Proteasome
- EXPERIMENT_DESCRIPTION: Inhibitory activity was evaluated against trypsin-like (proteasome) enzyme
- Assay type: subcellular
Residues, ends and D or L forms follow the SMILES beside them.
Field: IC50. Provide a value for each of the molecules that follow.
Reply numerically in µM, unit not repeated.

What does the data say about its IC50? Entry: CC(C)C[C@H](NC(=O)[C@H](CO)NC(=O)[C@@H](NC(=O)OCc1ccccc1)C(C)C)C(=O)NCc1ccccc1 (HELM PEPTIDE1{[O=C(OCc1ccccc1)[*:2]].V.S.L.[c1ccc(CN[*:1])cc1]}$$$$V2.0) 9.46

Given `CC(C)C[C@H](NC(=O)[C@H](CO)NC(=O)[C@H](Cc1ccccc1)NC(=O)OCc1ccccc1)C(=O)NCc1ccccc1` , state its recorded IC50. 4.82

====

Record form. Attribute: IC50. Fill in for each entry.
- TEST_SYSTEM: Proteasome
- EXPERIMENT_DESCRIPTION: Inhibitory activity was evaluated against chymotrypsin-like enzyme
- Assay type: subcellular
Residues, ends and D or L forms follow the SMILES beside them.
Reply numerically in µM, unit not repeated.

Hi! What's the reported IC50 for CC(C)C[C@H](NC(=O)OCC1c2ccccc2-c2ccccc21)C(=O)N[C@@H](CC(C)C)C(=O)N[C@@H](CC(C)C)C(=O)NCc1ccccc1 (HELM PEPTIDE1{[O=C(OCC1c2ccccc2-c2ccccc21)[*:2]].L.L.L.[c1ccc(CN[*:1])cc1]}$$$$V2.0) on Proteasome? 12.2

Report IC50 for CC(C)C[C@H](NC(=O)[C@H](CO)NC(=O)[C@@H](NC(=O)OCc1ccccc1)C(C)C)C(=O)NCc1ccccc1 (HELM PEPTIDE1{[O=C(OCc1ccccc1)[*:2]].V.S.L.[c1ccc(CN[*:1])cc1]}$$$$V2.0) tested on Proteasome. 3.73

Record `CC(C)C[C@H](NC(=O)[C@H](CO)NC(=O)[C@H](Cc1ccccc1)NC(=O)OCC1c2ccccc2-c2ccccc21)C(=O)NCc1ccccc1` : what is its IC50 with Proteasome? 11

IC50 of `CC(C)C[C@H](NC(=O)C1=CCCNC1)C(=O)N[C@@H](CC(C)C)C(=O)N[C@@H](CC(C)C)C(=O)NCc1ccccc1` on Proteasome? 1.41

====

So I've got a bunch of molecules here, and I need their pIC50 values.
- TEST_SYSTEM: Proteasome
- EXPERIMENT_DESCRIPTION: Inhibitory activity was evaluated against trypsin-like (proteasome) enzyme
- Assay type: subcellular
Residues, ends and D or L forms follow the SMILES beside them.
Friendly reminder that pIC50 comes from taking -log10 of the concentration in mol/L.

Name the reported pIC50 value associated with the molecule CC(C)C[C@H](NC(=O)[C@H](CO)NC(=O)[C@@H](NC(=O)OCC1c2ccccc2-c2ccccc21)C(C)C)C(=O)NCc1ccccc1 (HELM PEPTIDE1{[O=C(OCC1c2ccccc2-c2ccccc21)[*:2]].V.S.L.[c1ccc(CN[*:1])cc1]}$$$$V2.0) 4.87

Suppose we examine the molecule `CC(C)C[C@H](NC(=O)C1=CCCNC1)C(=O)N[C@@H](CC(C)C)C(=O)N[C@@H](CC(C)C)C(=O)NCc1ccccc1` ; what pIC50 value has been reported? 5.59

Sample `CC(C)C[C@H](NC(=O)[C@H](CO)NC(=O)[C@@H](NC(=O)C1=CCCNC1)C(C)C)C(=O)NCc1ccccc1` — what was its pIC50? 5.67

Item under review: `CC(C)C[C@H](NC(=O)[C@H](CO)NC(=O)[C@H](Cc1ccccc1)NC(=O)OCC1c2ccccc2-c2ccccc21)C(=O)NCc1ccccc1` . Reported pIC50? 4.89
